The measured values listed here are drawn from paper PMC9911399.

- Target Desc: T1, RBFOX1 RRM RbFoxmut (Fox-RRM*) (Homo sapiens, UniProt Q9NWB1 109-208, R118D;E147R;N151S;E152T)
- T1 sequence: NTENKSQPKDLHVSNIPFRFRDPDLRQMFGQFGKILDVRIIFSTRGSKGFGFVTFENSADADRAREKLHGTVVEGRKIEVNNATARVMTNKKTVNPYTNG
- Method Summary: EMSA; HiTS-Eq, 1 nM pool, 10 min; buffer printed only for the single-RNA assays: 10 mM Tris pH 7.5, 150 mM NaCl, 3.4 mM EDTA, 0.001% NP-40, 30 C
- Test Context: tags: His6 N-terminal (pET28a); label: 5' 32P
The full ranking holds about 16,000 sequences; the median of “ka relative to ugcaugu” is about 0.096, and the highest 2% start at about 0.35. What follows is part of a selection rich in the highest values, with near analogues and random picks from the rest.
Attribute Measured: binding signal

[Q] Dear colleague, I am looking for the recorded binding signal of the following binder: CUUCGUG (DNA:RNA) RNA: GGGAGACCGGAAUUCAGAUUGUCCCUUCGUGUUAAAUCCCGUCGUAGCCACCA DNA 1: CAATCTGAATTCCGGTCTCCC DNA 2: TGGTGGCTACGACGGGATT
[A] 0.135 KA relative to UGCAUGU

[Q] Dear colleague, I am looking for the recorded binding signal of the following binder: GUAUGAG (DNA:RNA) RNA: GGGAGACCGGAAUUCAGAUUGUCCGUAUGAGUUAAAUCCCGUCGUAGCCACCA DNA 1: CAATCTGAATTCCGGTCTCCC DNA 2: TGGTGGCTACGACGGGATT
[A] 0.513 KA relative to UGCAUGU
